- assayed.target: Serine/threonine-protein kinase PLK1 (Homo sapiens)
- method.description: Plk1 polo box domain binding inhibitors, SAR follow-up, biochemical, fluorescence polarization, purchased analogs (AID 1053)
- conditions.used: Plk1 PBD fluorescence polarization peptide binding; at 20 µM; stronger effect = higher value
Would you please tag the item met when its inhibition is -50% or above, and not met when it is below?

Worked cases, answers included:
{"compound": "CCOC(=O)c1ccc(NC(=O)c2c(C)cc(=O)oc2C)cc1", "assayed.target": "Serine/threonine-protein kinase PLK1 (Homo sapiens)", "class": "not met"}
{"compound": "COc1ccc(-c2nc3c(=O)n(C)c(=O)nc-3n(C)n2)cc1OC", "assayed.target": "Serine/threonine-protein kinase PLK1 (Homo sapiens)", "class": "met"}
{"compound": "CC(=O)N(/N=C1\\Sc2ccccc2C1=O)c1cccc(Br)c1", "assayed.target": "Serine/threonine-protein kinase PLK1 (Homo sapiens)", "class": "met"}

Exercise: Answer whether inhibition of `COc1cc(C=C2C(=O)NC(=O)NC2=O)ccc1OCc1c(C)no[n+]1[O-]` is greater than or equal to -50%.
Key: not met

Exercise: Assess whether reported inhibition for `COc1ccccc1N(/N=C1\Sc2ccccc2C1=O)C(C)=O` sits at -50% or higher.
Key: met

Exercise: Decide: inhibition of `COC(=O)c1ccc(N(/N=C2\Sc3ccccc3C2=O)C(C)=O)cc1` >= -50%?
Key: met

Exercise: Could you tell me if the measured inhibition of `CCOC(=O)c1ccc(NC(=O)c2ccc(Cl)c(Cl)c2)cc1` reaches -50% or more?
Key: met

Exercise: Hi team, for `O=C(COC(=O)c1ccc(NC(=O)c2ccc(Cl)cc2)cc1)c1ccccc1` , is the recorded inhibition at or above -50%?
Key: met

Exercise: hey, is inhibition for this one >= -50%? `Cc1ccc(C(=O)CN2C=CC(=C(O)NCc3ccccc3)C=C2)cc1`
Key: not met

Exercise: Dear colleague, could you confirm whether `COc1ccccc1N(CN1C(=O)c2ccc([N+](=O)[O-])cc2C1=O)C(C)=O` has inhibition at or above -50%?
Key: not met

Exercise: // inclusive: inhibition at least -50%? input: CC(OC(=O)c1ccc(NC(=O)c2ccc(Br)cc2)cc1)C(=O)c1ccccc1 (stereo not drawn)
Key: met

Exercise: Given `Cc1cc(-n2c(C)cc(C=C3C(=O)NC(=O)NC3=O)c2C)ccc1I` , state whether its inhibition is at least -50%.
Key: met

---

- assayed.target: Serine/threonine-protein kinase PLK1 (Homo sapiens) (UniProt P53350)
- Sequence (P53350 whole entry, looked up, the tested form may be a part): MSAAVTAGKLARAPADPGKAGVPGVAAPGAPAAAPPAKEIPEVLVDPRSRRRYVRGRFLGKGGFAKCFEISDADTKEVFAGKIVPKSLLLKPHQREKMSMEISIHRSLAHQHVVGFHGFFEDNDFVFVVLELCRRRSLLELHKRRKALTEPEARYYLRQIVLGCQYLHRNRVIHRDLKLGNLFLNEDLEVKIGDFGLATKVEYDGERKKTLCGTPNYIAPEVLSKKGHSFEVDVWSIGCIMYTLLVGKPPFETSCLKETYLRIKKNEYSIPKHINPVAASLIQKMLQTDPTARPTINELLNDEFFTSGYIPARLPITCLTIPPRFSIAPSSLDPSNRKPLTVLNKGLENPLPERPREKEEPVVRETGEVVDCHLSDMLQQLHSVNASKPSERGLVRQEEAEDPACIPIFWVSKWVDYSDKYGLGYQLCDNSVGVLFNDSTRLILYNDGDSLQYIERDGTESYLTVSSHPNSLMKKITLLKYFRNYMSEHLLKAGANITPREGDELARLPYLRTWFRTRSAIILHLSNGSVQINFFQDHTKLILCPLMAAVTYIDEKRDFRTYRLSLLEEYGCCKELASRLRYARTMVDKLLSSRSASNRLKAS
- method.description: Plk1 polo box domain binding inhibitors, SAR follow-up, biochemical, fluorescence polarization, purchased analogs (AID 1053)
- conditions.used: Plk1 PBD fluorescence polarization peptide binding; at 20 µM; stronger effect = higher value
experimental.endpoint: inhibition (%)
Numeric answer only, unit % assumed.

{"record.smiles": "CC(=O)N(CN1C(=O)c2ccc([N+](=O)[O-])cc2C1=O)c1ccc(Oc2ccccc2)cc1", "number": -28.5}
{"record.smiles": "CCOC(=O)c1ccc(NC(=O)c2ccc3nc(N)sc3c2)cc1", "number": -36.9}
{"record.smiles": "CCOC(=O)c1ccc(N=Cc2c(O)n(Cc3ccc4c(c3)OCO4)c(=O)[nH]c2=O)cc1", "number": -19.4}
{"record.smiles": "COc1ccc(N(CN2C(=O)c3cc(Cl)c(Cl)cc3C2=O)C(C)=O)cc1", "number": -52.7}

Attention now shifts to the item below.
Exercise: Name the reported inhibition value associated with the molecule `CCCOC(=O)c1ccc(NC(=O)c2ccc(OC)c([N+](=O)[O-])c2)cc1`
Key: -17.9
